assayed target: human FPRL1 (Homo sapiens)
Construct: Full length cDNA encoding FPRL1 was cloned, using the polymerase chain reaction (PCR), from genomic DNA isolated from undifferentiated HL-60 cells; expressed in transfected cells; linearized FPRL1/pcDNA3.1, electroporation
Sequence (P25090 whole entry): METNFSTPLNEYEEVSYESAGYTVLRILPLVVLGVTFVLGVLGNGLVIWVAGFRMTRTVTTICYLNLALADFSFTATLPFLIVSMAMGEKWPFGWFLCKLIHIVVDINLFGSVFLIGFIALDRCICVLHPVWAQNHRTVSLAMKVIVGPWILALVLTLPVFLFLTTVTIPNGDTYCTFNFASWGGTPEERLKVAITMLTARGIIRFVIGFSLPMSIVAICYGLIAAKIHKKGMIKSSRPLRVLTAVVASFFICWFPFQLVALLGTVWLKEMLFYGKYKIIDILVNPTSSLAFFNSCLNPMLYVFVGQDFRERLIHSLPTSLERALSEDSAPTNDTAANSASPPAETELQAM
protocol details: Calcium flux in FPRL1-L1.2 transfectants
Type: cell-based
test context: qualitative rating high, moderate, low; see Example 9
Ends that are not written are not given here.
quantity name: Designation and FPRL1 Activity

[
  {
    "substance": "WRRKIGPQMTLSHAAG [SEQ ID NO: 7]",
    "assayed target": "human FPRL1 (Homo sapiens)",
    "quantity name": "Designation and FPRL1 Activity",
    "endpoint result": "Low"
  },
  {
    "substance": "MLWRRKIGPQMTLSHAAG [SEQ ID NO: 1]",
    "assayed target": "human FPRL1 (Homo sapiens)",
    "quantity name": "Designation and FPRL1 Activity",
    "endpoint result": "high"
  },
  {
    "substance": "MLWRRKIGPQMTLSHAAY [SEQ ID NO: 6]",
    "assayed target": "human FPRL1 (Homo sapiens)",
    "quantity name": "Designation and FPRL1 Activity",
    "endpoint result": "high"
  },
  {
    "substance": "MLWRRKIGPQMTLSH [SEQ ID NO: 3]",
    "assayed target": "human FPRL1 (Homo sapiens)",
    "quantity name": "Designation and FPRL1 Activity",
    "endpoint result": "High"
  },
  {
    "substance": "WRRKIGPQM [SEQ ID NO: 9]",
    "assayed target": "human FPRL1 (Homo sapiens)",
    "quantity name": "Designation and FPRL1 Activity",
    "endpoint result": "Low"
  },
  {
    "substance": "IGPQMTLSHAAG [SEQ ID NO: 4]",
    "assayed target": "human FPRL1 (Homo sapiens)",
    "quantity name": "Designation and FPRL1 Activity",
    "endpoint result": "Low"
  },
  {
    "substance": "WRRKIG [SEQ ID NO: 10, Trp Arg Arg Lys Ile Gly]",
    "assayed target": "human FPRL1 (Homo sapiens)",
    "quantity name": "Designation and FPRL1 Activity",
    "endpoint result": "Low"
  }
]
